# method-notes: Volume of distribution at steady state in rat at 0.5 mg/kg, iv and 1 mg/kg, po
# Assay type: ADME, organism-based
# recorded-conditions: in vivo, read-out: Vdss
Quick reference: Vd of the listed items.
observable: Vd (L/kg)

* Cc1ccc2c(N3CCN(CCCc4cccc5c4OCC(=O)N5C)CC3)cccc2n1 | 5.2
* Cc1ccc2c(N3CCN(CCc4ccc5c(c4)NC(=O)CO5)CC3)cccc2n1 | 2
* Cc1ccc2c(N3CCN(CCc4cccc5c4OCC(=O)N5)CC3)cccc2n1 | 3.4
* Cc1ccc2c(N3CCN(CCc4ccc5c(c4)N(C)C(=O)CO5)CC3)cccc2n1 | 2.7
* Cc1ccc2c(N3CCN(CCc4cccc5c4OCC(=O)N5C)CC3)cccc2n1 | 1.7
* Cc1ccc2c(N3CCN(CCc4cccc5c4OCC(=O)N5C)[C@@H](C)C3)cccc2n1 | 1.9
* Cc1ccc2c(N3CCN(CCc4cccc5c4OCC(=O)N5C)CC3)cc(F)cc2n1 | 2.1
